# Test system: K562
# PROTOCOL SUMMARY: Cytotoxicity on panel of cell lines, TMRE viability (Example II.2)
# Type: cell-based
# RUN PARAMETERS: Homo sapiens, 24 hours, mean, control = 1, read-out: cell viability relative to control, K562 (CML)
viability at 30 µM reference
Use % as the unit, but write only the number.

// worked examples, viability at 30 µM included
Fc1ccc(-c2ncn(C3CCCCC3)c2-c2ccnc3[nH]ccc23)cc1 | 81
Fc1ccc(-c2nc(I)n(C3CCCCC3)c2-c2ccnc3[nH]ccc23)cc1 | 1

Kindly consider the entry below.
Measured viability at 30 µM of Cc1cc2c(-c3c(-c4ccc(F)cc4)ncn3C3CCCCC3)ccnc2[nH]1 : 73
